Just for reference, patent US20100152252A1 is where these values come from.

# System: Cloned Human Serotonin Receptor, Subtype 7 (h5HT7) (Homo sapiens, UniProt P34969)
# Construct: purchased PerkinElmer 6120512; host or cells: CHO cells
# Sequence (P34969 whole entry): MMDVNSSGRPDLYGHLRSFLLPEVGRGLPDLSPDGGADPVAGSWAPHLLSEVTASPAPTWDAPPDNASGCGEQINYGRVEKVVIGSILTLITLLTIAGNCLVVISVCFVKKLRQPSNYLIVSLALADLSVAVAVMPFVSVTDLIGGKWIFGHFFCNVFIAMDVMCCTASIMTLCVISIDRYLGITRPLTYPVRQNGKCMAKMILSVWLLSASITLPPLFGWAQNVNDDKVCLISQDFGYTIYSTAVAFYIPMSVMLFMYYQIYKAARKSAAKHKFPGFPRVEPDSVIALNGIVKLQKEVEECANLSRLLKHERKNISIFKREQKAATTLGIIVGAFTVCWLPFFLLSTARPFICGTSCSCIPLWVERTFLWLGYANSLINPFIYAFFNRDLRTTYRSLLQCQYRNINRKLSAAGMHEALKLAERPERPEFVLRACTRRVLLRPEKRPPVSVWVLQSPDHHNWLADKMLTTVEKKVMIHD
# Measurement description: Radioligand binding, [125I]LSD, h5HT7 expressed in CHO cells
# Condition parameters: [125I]LSD 0.82 nM, h5HT7 in CHO cells; read-out: 5-HT7 IC50
pIC50: −log10 of the molar value.
Property measured: pIC50

In [3]: df
Out[3]:
                            smiles_code  property_measured  measured_number
0         Cc1noc(C)c1-c1cccc(CCN(C)C)c1              pIC50             6.10
1        CCN(CC)CCc1cccc(-c2cnn(C)c2)c1              pIC50             6.12
2    CCN(CC)CCc1cccc(-c2c(OC)cccc2OC)c1              pIC50             6.52
3     CCCN(CCC)CCc1cccc(-c2c(C)noc2C)c1              pIC50             6.22
4    Cc1nn(C)c(C)c1-c1cccc(CCN2CCCC2)c1              pIC50             6.86
5  CCCN(CCC)CCc1cccc(-c2c(OC)cccc2OC)c1              pIC50             6.93
6        CCN(CC)CCc1cccc(-c2ccccc2OC)c1              pIC50             6.81
7      Cc1n[nH]c(C)c1-c1cccc(CCN(C)C)c1              pIC50             6.89
